tgt: ERK2 (Homo sapiens)
Sequence (P28482 whole entry): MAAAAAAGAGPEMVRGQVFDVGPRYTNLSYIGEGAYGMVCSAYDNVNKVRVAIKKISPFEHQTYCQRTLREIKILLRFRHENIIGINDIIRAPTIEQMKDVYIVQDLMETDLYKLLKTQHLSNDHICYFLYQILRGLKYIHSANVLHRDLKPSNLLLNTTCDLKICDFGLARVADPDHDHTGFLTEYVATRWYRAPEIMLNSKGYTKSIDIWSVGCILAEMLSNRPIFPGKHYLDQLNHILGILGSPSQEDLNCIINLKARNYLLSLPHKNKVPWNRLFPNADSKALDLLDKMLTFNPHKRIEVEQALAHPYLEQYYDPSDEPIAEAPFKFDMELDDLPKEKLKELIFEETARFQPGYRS
assay text: ERK2 inhibition assay (spectrophotometric coupled-enzyme assay)
Assay type: biochemical
condition description: ERK2 Inhibitory Activity (Ki class D-F)
# reported Ki; entries follow

{"compound": "Cc1cnc(Nc2nc(N3CCCCC3)nc3ccccc23)nc1-c1c[nH]c(C(=O)NCc2ccccc2)c1 [III-a-133]", "tgt": "ERK2 (Homo sapiens)", "Ki": "> 1 µM"}

Consider now this further compound.
Problem: GET /values?readout=Ki&item= Cc1cnc(NC(CO)c2ccccc2)nc1-c1c[nH]c(C(=O)NC(CO)c2ccccc2)c1 (centres unmarked) [III-a-166]
Solution: 0.1 to 1 µM

====

tgt: ERK2 (Homo sapiens)
assay text: ERK2 inhibition assay (spectrophotometric coupled-enzyme assay)
Type: biochemical
condition description: read-out: ERK2 Inhibitory Activity (Ki class D-F)
pKi: −log10 of the molar value.
# reported pKi; entries follow

Solved entries (count: 3):
{"compound": "CONc1ncc(C)c(-c2c[nH]c(C(=O)NC(CO)c3ccccc3)c2)n1 (centres unmarked) [III-a-206]", "tgt": "ERK2 (Homo sapiens)", "pKi": "> 7.00"}
{"compound": "Cc1cnc(NC2(CO)CC2)nc1-c1c[nH]c(C(=O)NC(CO)c2ccccc2)c1 (centres unmarked) [III-a-174]", "tgt": "ERK2 (Homo sapiens)", "pKi": "> 7.00"}
{"compound": "Cc1cccc(C(CO)NC(=O)c2cc(-c3nc(NC4CC4)ncc3C)c[nH]2)c1 (centres unmarked) [III-a-205]", "tgt": "ERK2 (Homo sapiens)", "pKi": "> 7.00"}

Problem: # get_value(readout= pKi, system= ERK2 (Homo sapiens)) for CCNc1ncc(C)c(-c2c[nH]c(C(=O)NC3CC3)c2)n1 [III-a-114]
Solution: < 6.00

Problem: // next record Cc1cnc(NC2CC2C)nc1-c1c[nH]c(C(=O)NC(CO)c2ccccc2)c1 (centres unmarked) [III-a-237]
Solution: > 7.00

====

tgt: ERK2 (Homo sapiens)
assay text: ERK2 inhibition assay (spectrophotometric coupled-enzyme assay)
Type: biochemical
condition description: read-out: ERK2 Inhibitory Activity (Ki class D-F)
Description: The IC50 was evaluated from the rate data as a function of inhibitor concentration. […] The compound numbers correspond to the compound numbers in Table 1.
reported metric: Ki

Solved entries (count: 6):
{"compound": "Cc1cnc(NOCC2CC2)nc1-c1c[nH]c(C(=O)NC(CO)c2ccccc2)c1 (centres unmarked)", "Ki": "< 100 nM"}
{"compound": "CCN(CC)CCNc1ncc(C)c(-c2c[nH]c(C(=O)NCc3ccc(F)c(F)c3)c2)n1", "Ki": "> 1000 nM"}
{"compound": "Cc1cnc(NCC(C)C)nc1-c1c[nH]c(C(=O)NC(CO)c2ccccc2)c1 (centres unmarked)", "Ki": "< 100 nM"}
{"compound": "Cc1cnc(Nc2cccc(C(F)(F)F)c2)nc1-c1c[nH]c(C(=O)NC(CO)c2ccccc2)c1 (centres unmarked)", "Ki": "< 100 nM"}
{"compound": "CCNc1ncc(C)c(-c2c[nH]c(C(=O)NC(CCO)c3ccccc3)c2)n1 (centres unmarked) [III-a-172]", "Ki": "> 1000 nM"}
{"compound": "Cc1cnc(NCC2CC2)nc1-c1c[nH]c(C(=O)NC(CO)c2ccccc2)c1 (centres unmarked)", "Ki": "< 100 nM"}

Problem: GET /values?readout=Ki&item= CCNc1ncc(C)c(-c2c[nH]c(C(=O)NC(CO)c3cccc(F)c3)c2)n1 (centres unmarked)
Solution: < 100 nM

Problem: // next record CNc1ncc(C)c(-c2c[nH]c(C(=O)NC(CO)c3ccc(F)c(Cl)c3)c2)n1 (centres unmarked)
Solution: < 100 nM

====

tgt: CDK-2/Cyclin A (Homo sapiens, UniProt P24941)
assay text: CDK-2 inhibition assay (coupled enzyme assay)
pKi: −log10 of the molar value.
# reported pKi; entries follow

{"compound": "Cc1cnc(Nc2cccc(C(F)(F)F)c2)nc1-c1c[nH]c(C(=O)NC(CO)c2ccccc2)c1 (stereo not drawn)", "tgt": "CDK-2/Cyclin A (Homo sapiens, UniProt P24941)", "test result": "> 7.00"}
{"compound": "Cc1cnc(NCC2CC2)nc1-c1c[nH]c(C(=O)NC(CO)c2ccccc2)c1 (stereo not drawn)", "tgt": "CDK-2/Cyclin A (Homo sapiens, UniProt P24941)", "test result": "4.70 to 6.00"}
{"compound": "Cc1cnc(N[C@H](CO)c2ccccc2)nc1-c1c[nH]c(C(=O)N[C@H](CO)c2ccccc2)c1", "tgt": "CDK-2/Cyclin A (Homo sapiens, UniProt P24941)", "test result": "6.00 to 7.00"}
{"compound": "COc1ccccc1Nc1ncc(C)c(-c2c[nH]c(C(=O)NC(CO)c3ccccc3)c2)n1 (stereo not drawn)", "tgt": "CDK-2/Cyclin A (Homo sapiens, UniProt P24941)", "test result": "4.70 to 6.00"}
{"compound": "Cc1cnc(Nc2cccc(F)c2)nc1-c1c[nH]c(C(=O)NC(CO)c2cccc(C(F)(F)F)c2)c1 (stereo not drawn)", "tgt": "CDK-2/Cyclin A (Homo sapiens, UniProt P24941)", "test result": "6.00 to 7.00"}
{"compound": "Cc1cnc(NCc2ccccc2)nc1-c1c[nH]c(C(=O)NC(CO)c2ccccc2)c1 (stereo not drawn)", "tgt": "CDK-2/Cyclin A (Homo sapiens, UniProt P24941)", "test result": "6.00 to 7.00"}

Problem: GET /values?readout=pKi&item= Cc1cnc(Nc2ccccc2)nc1-c1c[nH]c(C(=O)NC(CO)c2cccc(C(F)(F)F)c2)c1 (stereo not drawn)
Solution: 6.00 to 7.00

Problem: // next record CCNc1ncc(C)c(-c2c[nH]c(C(=O)N[C@H](CO)c3ccccc3)c2)n1
Solution: 4.70 to 6.00

Problem: // next record Cc1cnc(NC2CCC(O)CC2)nc1-c1c[nH]c(C(=O)NC(CO)c2ccccc2)c1 (stereo not drawn)
Solution: > 7.00

Problem: // next record Cc1cnc(NC2(CO)CC2)nc1-c1c[nH]c(C(=O)NC(CO)c2ccccc2)c1 (stereo not drawn)
Solution: 6.00 to 7.00

Problem: // next record Cc1cnc(NC2CC2)nc1-c1c[nH]c(C(=O)N[C@H](CO)c2ccccc2)c1
Solution: 6.00 to 7.00

Problem: // next record Cc1cnc(Nc2ccc(OCc3ccccc3)cc2)nc1-c1c[nH]c(C(=O)NC(CO)c2ccccc2)c1 (stereo not drawn)
Solution: > 7.00

====

# reported Ki; entries follow
tgt: UniProt:P28482
assay text: ERK2 inhibition assay (spectrophotometric coupled-enzyme assay)
Type: biochemical
condition description: read-out: ERK2 Inhibitory Activity (Ki class D-F)

{"compound": "Cc1cccc(C(CO)NC(=O)c2cc(-c3nc(NC(CO)c4ccccc4)ncc3C)c[nH]2)c1 (stereo not shown)", "Ki": "< 100 nM"}
{"compound": "CCNc1ncc(C)c(-c2c[nH]c(C(=O)NCC(O)c3ccccc3)c2)n1 (stereo not shown)", "Ki": "100 to 1000 nM"}
{"compound": "Cc1cnc(NC(C)CO)nc1-c1c[nH]c(C(=O)NC(CO)c2ccccc2)c1 (stereo not shown)", "Ki": "< 100 nM"}

Problem: GET /values?readout=Ki&item= CCNc1ncc(C)c(-c2c[nH]c(C(=O)N[C@H](CO)c3ccccc3)c2)n1
Solution: < 100 nM

Problem: // next record Cc1ccc(C(CO)NC(=O)c2cc(-c3nc(Nc4ccccc4)ncc3C)c[nH]2)cc1F (stereo not shown)
Solution: < 100 nM

====

tgt: ERK2 (Homo sapiens)
assay text: ERK2 inhibition assay (spectrophotometric coupled-enzyme assay)
Type: biochemical
condition description: read-out: ERK2 Inhibitory Activity (Ki class D-F)
Description: The IC50 was evaluated from the rate data as a function of inhibitor concentration. […] The compound numbers correspond to the compound numbers in Table 1.
# reported Ki; entries follow

Solved entries (count: 7):
{"compound": "Cc1cnc(Nc2ccc(OC(F)(F)F)cc2)nc1-c1c[nH]c(C(=O)NC(CO)c2ccccc2)c1 (centres unmarked) [III-a-157]", "tgt": "ERK2 (Homo sapiens)", "Ki": "< 0.1 µM"}
{"compound": "Cc1cnc(NCC(F)(F)F)nc1-c1c[nH]c(C(=O)NC(CO)c2ccccc2)c1 (centres unmarked) [III-a-154]", "tgt": "ERK2 (Homo sapiens)", "Ki": "< 0.1 µM"}
{"compound": "CCNc1ncc(C)c(-c2c[nH]c(C(=O)NC(CO)c3ccccc3F)c2)n1 (centres unmarked) [III-a-192]", "tgt": "ERK2 (Homo sapiens)", "Ki": "0.1 to 1 µM"}
{"compound": "Cc1cc(Nc2ncc(C)c(-c3c[nH]c(C(=O)NC(CO)c4ccccc4)c3)n2)no1 (centres unmarked) [III-a-229]", "tgt": "ERK2 (Homo sapiens)", "Ki": "0.1 to 1 µM"}
{"compound": "Cc1cccc(C(CO)NC(=O)c2cc(-c3nc(Nc4cccc(F)c4)ncc3C)c[nH]2)c1 (centres unmarked) [III-a-212]", "tgt": "ERK2 (Homo sapiens)", "Ki": "< 0.1 µM"}
{"compound": "Cc1cnc(NN(C)C)nc1-c1c[nH]c(C(=O)N[C@H](CO)c2ccccc2)c1 [III-a-226]", "tgt": "ERK2 (Homo sapiens)", "Ki": "< 0.1 µM"}
{"compound": "CCNc1ncc(C)c(-c2c[nH]c(C(=O)NC(CO)c3cccc(C(F)(F)F)c3)c2)n1 (centres unmarked) [III-a-198]", "tgt": "ERK2 (Homo sapiens)", "Ki": "< 0.1 µM"}

Consider now this further compound.
Problem: GET /values?readout=Ki&item= CCNc1ncc(CO)c(-c2c[nH]c(C(=O)NC(CO)c3ccccc3)c2)n1 (centres unmarked) [III-a-189]
Solution: < 0.1 µM
